Test system: NCI-H1650;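 note: growth inhibition of human NCI-H1650 cells measured by a cell viability assay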
Test: cells
Format: functional, cell-based, Homo sapiens
Settings: Homo sapiens, NCI-H1650
Description: SANGER: Inhibition of human NCI-H1650 cell growth in a cell viability assay.
Entries and their IC50 values follow.

Solved entries (count: 4):
COc1cc2ncn(-c3cc(OCc4ccccc4S(C)(=O)=O)c(C#N)s3)c2cc1OC [GSK-319347A]: > 5 µM
N#Cc1c(O)c2c(-c3ccc(-c4ccccc4O)cc3)csc2[nH]c1=O: > 1.02 µM
CS(=O)(=O)c1ccc(C(=O)Nc2ccc(Cl)c(-c3ccccn3)c2)c(Cl)c1 [VISMODEGIB]: > 10 µM
O=C(O)c1ccc(-c2c[nH]c3ncc(-c4ccccc4)cc23)cc1C1CCCC1 [GSK-650394]: > 16 µM

Okay, now this molecule:
Dear colleague, I am looking for the recorded IC50 of the following molecule: `CC(C)c1ccccc1Cc1cc(C(=O)Nc2ccc(S(=O)(=O)c3ccccc3C(C)(C)C)cc2)c(O)c(O)c1O` 4.92 µM
